Reference for the values: ChEMBL document CHEMBL1146161

- System: Human immunodeficiency virus 1
- protocol summary: Antiviral activity against HIV1 BaL in PBMC
- Assay type: functional, organism-based
Active and inactive are the calls of the source. The calls are words filed in the database; no cut-off is given here.
Your answer must be one of the following: active, inactive

Lab log entry: `Oc1ccc(CN2CCCN(Cc3ccc(O)c4ncccc34)CCNCCCNCC2)c2cccnc12` — outcome as called in the assay?
active

Lab log entry: `Oc1ccc(CCl)c2cccnc12` — outcome as called in the assay?
inactive

Lab log entry: `Oc1ccc(CN2CCN(Cc3ccc(O)c4ncccc34)CC2)c2cccnc12` — outcome as called in the assay?
inactive

Lab log entry: `c1cc(CN2CCCNCCNCCCNCC2)cc(CN2CCCNCCNCCCNCC2)c1` — outcome as called in the assay?
inactive

Lab log entry: `Oc1c(I)cc(Cl)c2cccnc12` — outcome as called in the assay?
inactive

Lab log entry: `c1cc(CN2CCCNCCNCCCNCC2)ccc1CN1CCCNCCNCCCNCC1` — outcome as called in the assay?
inactive

Lab log entry: `Oc1ccc(CNCCCNCc2ccc(O)c3ncccc23)c2cccnc12` — outcome as called in the assay?
inactive

Lab log entry: `Oc1ccc(CNCc2ccc(CNCc3ccc(O)c4ncccc34)cc2)c2cccnc12` — outcome as called in the assay?
inactive
